system: HMG-CoA reductase (Enterococcus faecalis, mvaE); assay: class II HMG-CoA reductase enzyme inhibition – biochemical, Enterococcus faecalis, primary screen (AID 1066);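 note: enzyme runs in reverse so mevalonate oxidation gives rising NADPH absorbance; 0% = complete reaction with DMSO and 100% = background rate lacking mevalonate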; details: purified E. faecalis HMGR, NADPH absorbance 340 nm kinetic; at 10 µM; active compounds read high
Screen size: about 190,000 compounds; about 790 (0.42%) were called active. Only a selection was taken, and actives are over-represented in it overall.
OUTCOME MEASURE: inhibition (%)
Number only, in %; omit the unit.

Input line: Give the value of inhibition reported for the following: CCC(C)(C)NC(=O)CN(Cc1cccs1)C(=O)CNS(=O)(=O)c1ccc(F)cc1
Output line: -1.17

Input line: Give the value of inhibition reported for the following: CCOC(=O)c1c(NC(=O)c2cccs2)sc(C)c1C
Output line: 0.72

Input line: Give the value of inhibition reported for the following: O=C(CCN1C(=O)c2ccccc2C1=O)NNC(=O)c1ccc(Cl)cc1Cl
Output line: -5.06

Input line: Give the value of inhibition reported for the following: CN1CCN(C(CNS(=O)(=O)c2cccs2)c2cccnc2)CC1 (stereo unspecified)
Output line: -4.32

Input line: Give the value of inhibition reported for the following: Cc1ccc(SCCC(=O)NCc2ccccn2)cc1
Output line: 1.33

Input line: Give the value of inhibition reported for the following: COC(=O)c1c(NC(=O)c2c(Cl)cnn2C)sc(C)c1C
Output line: 11

Input line: Give the value of inhibition reported for the following: CCOc1ccccc1N1CCN(C(=S)Nc2ccc(S(N)(=O)=O)cc2)CC1
Output line: -3.56

Input line: Give the value of inhibition reported for the following: COC(=O)c1ccccc1NS(=O)(=O)c1ccc2[nH]c(=O)[nH]c2c1
Output line: -1.55

Input line: Give the value of inhibition reported for the following: COCCCNCC(=O)Nc1sc(C)c(C)c1C(=O)OC
Output line: 1.07

Input line: Give the value of inhibition reported for the following: CC1CCCCC1NC(=O)COC(=O)Cc1ccc(Br)cc1 (stereo unspecified)
Output line: -8.55

Input line: Give the value of inhibition reported for the following: O=Cc1ccc(Oc2cccc(C(F)(F)F)c2)nc1
Output line: -2.83
